pIC50 values for the compounds below.
Target: TBK1 (Homo sapiens, UniProt Q9UHD2)
Sequence (Q9UHD2 whole entry, species assumed): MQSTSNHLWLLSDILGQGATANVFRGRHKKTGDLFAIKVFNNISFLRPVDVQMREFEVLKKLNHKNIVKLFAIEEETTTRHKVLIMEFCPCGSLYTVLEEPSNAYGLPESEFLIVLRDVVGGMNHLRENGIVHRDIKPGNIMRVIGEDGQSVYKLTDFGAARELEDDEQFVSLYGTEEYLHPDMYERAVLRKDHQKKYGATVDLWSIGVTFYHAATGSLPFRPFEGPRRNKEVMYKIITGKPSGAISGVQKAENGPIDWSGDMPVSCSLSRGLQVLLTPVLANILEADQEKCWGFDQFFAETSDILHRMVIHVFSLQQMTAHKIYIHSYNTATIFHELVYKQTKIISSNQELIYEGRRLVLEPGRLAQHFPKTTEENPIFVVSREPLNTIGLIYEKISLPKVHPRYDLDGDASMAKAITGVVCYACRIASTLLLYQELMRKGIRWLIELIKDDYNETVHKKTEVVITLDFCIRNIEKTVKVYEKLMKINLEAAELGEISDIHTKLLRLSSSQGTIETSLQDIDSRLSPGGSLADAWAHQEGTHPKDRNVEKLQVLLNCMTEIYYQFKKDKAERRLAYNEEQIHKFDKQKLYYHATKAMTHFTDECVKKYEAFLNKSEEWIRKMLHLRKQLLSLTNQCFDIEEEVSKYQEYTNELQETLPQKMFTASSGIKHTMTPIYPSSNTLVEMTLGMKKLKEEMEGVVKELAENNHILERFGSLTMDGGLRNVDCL
Test: TBK Biochemical Assay
Settings: read-out: TBK1 IC50
pIC50: −log10 of the molar value. Structures can show the parent of a compound that is named as a salt.

Consider the worked cases shown below.
COMPOUND: CN(C)C(=O)c1ccc(-c2cc3nccc(-c4ccc(NC5CC(C)(C)OC(C)(C)C5)c(C#N)c4)c3o2)cc1
pIC50: 5.30 to 6.00
--
COMPOUND: COc1cc(C(=O)N(C)C)cnc1-c1cc2nccc(-c3ccc(OC4CCN(C(C)C)C4)c(C#N)c3)c2o1 (centres unmarked)
pIC50: 6.00 to 7.00
--
COMPOUND: COc1cc(C(=O)N2CC[C@H](N(C)C)C2)ncc1-c1cc2nccc(-c3ccc(N4CC[C@H](F)C4)c(C#N)c3)c2o1
pIC50: > 7.00
--
COMPOUND: COc1cc(C(=O)N2CCC(C)(O)C2)ccc1-c1cc2nccc(-c3ccc(OC4CCOCC4)c(C#N)c3)c2o1 (centres unmarked)
pIC50: > 7.00
--
COMPOUND: N#Cc1cc(-c2ccnc3cc(-c4ccc(C(=O)NC5CN6CCC5CC6)cc4F)oc23)ccc1OC1CCOCC1 (centres unmarked)
pIC50: > 7.00

Q) Return reported pIC50; argument: COc1cc(C(=O)N[C@@H]2CCNC[C@@H]2F)ccc1-c1cc2nccc(-c3ccc(NC4CCOCC4)c(C#N)c3)c2o1 (single isomer, unassigned) [Compound 251, hydrochloride]
A) > 7.00

Q) Look up pIC50 for this compound: COc1cc(C(=O)N(C)C)ccc1-c1cc2nccc(-c3ccc(N(C)C4CCOCC4)c(C#N)c3)c2o1
A) > 7.00

Q) # get_value(readout='pIC50', item= COc1cc(C(=O)N(C)C)ccc1-c1cc2nccc(-c3ccc(OC4CCN(C(C)=O)CC4)c(C#N)c3)c2o1 )
A) > 7.00

Q) Look up pIC50 for this compound: COc1cc(C(=O)NC2CN(C(C)C)C2)ccc1-c1cc2nccc(-c3ccc(OC4CCOCC4)c(C#N)c3)c2o1
A) > 7.00

Data provenance is patent US10428080B2.
